- method-description: Growth inhibition of human Nc37 cells assessed as viable cells at 10^-4 M after 72 hrs relative to control
- Assay type: functional
- condition-description: NC-37, 72 h, read-out: Activity
Listed here are compounds together with their documented viability at 100 µM.
# value in %; strip the unit string

> print(dat)
                                   compound    reported.endpoint  unit.name  numeric.readout
1           O=C(Nc1ncnc2[nH]cnc12)NC1CCCCC1  viability at 100 µM          %               60
2              Nc1ncnc2c1ncn2C(=O)Nc1ccccc1  viability at 100 µM          %               90
3  CN(C(=O)Nc1ccccc1Cl)c1ncnc2c1ncn2C(=O)Nc1ccccc1Cl  viability at 100 µM          %               90
4           CNC(=O)N(C)c1ncnc2c1ncn2C(=O)NC  viability at 100 µM          %               30
5  O=C(Nc1ccccc1F)Nc1ncnc2c1ncn2[C@@H]1O[C@H](CO)[C@@H](O)[C@H]1O  viability at 100 µM          %               60

Consider the compound shown here: `CC(C)(C)NC(=O)Nc1ncnc2[nH]cnc12` What is its recorded viability at 100 µM?
60

Requested field: viability at 100 µM. Item: `Nc1ncnc2c1ncn2C(=O)N[C@@H](Cc1ccccc1)C(=O)O`
30
